Taken from ChEMBL document CHEMBL1123497.

Test system: Rattus norvegicus
Test: Antiinflammatory activity by Carrageenan edema assay in rats
Format: functional
Set-up: concentration or dose not given beside the values; unit not given here
Recorded Inhibition by entry
Just the number, please, no unit attached.

// worked examples, Inhibition included
[
  {
    "molecule-smiles": "CCOC(=O)n1c2cc(OC)ccc2c2oc(C(=O)N3CCOCC3)cc21",
    "Inhibition": 1
  },
  {
    "molecule-smiles": "CCCCCCCCn1c2cc(C(F)(F)F)ccc2c2oc(C(=O)N3CCOCC3)cc21",
    "Inhibition": 3
  },
  {
    "molecule-smiles": "CC(C)COC(=O)n1c2cc(F)ccc2c2oc(C(=O)N3CCOCC3)cc21",
    "Inhibition": 1
  },
  {
    "molecule-smiles": "CCCOC(=O)n1c2cc(C(F)(F)F)ccc2c2oc(C(=O)N3CCOCC3)cc21",
    "Inhibition": 3
  },
  {
    "molecule-smiles": "Cc1ccc2c3oc(C(=O)N4CCOCC4)cc3n(C(=O)OCC(C)C)c2c1",
    "Inhibition": 2
  }
]

Documented Inhibition of "COC(=O)n1c2cc(OC)ccc2c2oc(C(=O)N3CCOCC3)cc21" : 1

Documented Inhibition of "CCOC(=O)n1c2cc(Cl)ccc2c2oc(C(=O)N3CCOCC3)cc21" : 2

Documented Inhibition of "COC(=O)n1c2cc(O)ccc2c2oc(C(=O)N3CCOCC3)cc21" : 1

Documented Inhibition of "CCOC(=O)n1c2cc(F)ccc2c2oc(C(=O)N3CCOCC3)cc21" : 1

Documented Inhibition of "CCCOC(=O)n1c2cc(Cl)ccc2c2oc(C(=O)N3CCOCC3)cc21" : 2

Documented Inhibition of "CCOC(=O)n1c2ccccc2c2oc(C(=O)N3CCOCC3)cc21" : 1

====

Tested on: Rattus norvegicus
Test: Antiinflammatory activity by Carrageenan edema assay in rats
Assay type: functional
Design: concentration or dose not given beside the values; unit not given here
observation-type: Inhibition
Just the number, please, no unit attached.

[
  {
    "molecule": "CCCOC(=O)n1c2cc(C)ccc2c2oc(C(=O)N3CCOCC3)cc21",
    "Inhibition": 1
  },
  {
    "molecule": "CC(C)OC(=O)n1c2cc(C(F)(F)F)ccc2c2oc(C(=O)N3CCOCC3)cc21",
    "Inhibition": 3
  },
  {
    "molecule": "CCCCC(CC)C(=O)n1c2cc(C(F)(F)F)ccc2c2oc(C(=O)N3CCOCC3)cc21 (stereo not given)",
    "Inhibition": 3
  },
  {
    "molecule": "Cc1ccc2c3oc(C(=O)N4CCOCC4)cc3n(C(=O)OC(C)C)c2c1",
    "Inhibition": 3
  }
]

// below: Inhibition requested for another molecule
Documented Inhibition of "CC(C)CC(=O)n1c2cc(C(F)(F)F)ccc2c2oc(C(=O)N3CCOCC3)cc21" : 3

====

Recorded Inhibition by entry
Test system: Rattus norvegicus
Assay: Antiinflammatory activity by Carrageenan edema assay in rats
Format: functional
Set-up: concentration or dose not given beside the values; unit not given here
Just the number, please, no unit attached.

[
  {
    "molecule-smiles": "CCCCOC(=O)n1c2cc(Cl)ccc2c2oc(C(=O)N3CCOCC3)cc21",
    "Inhibition": 2
  },
  {
    "molecule-smiles": "COc1ccc2c3oc(C(=O)N4CCOCC4)cc3n(C(=O)OC(C)C)c2c1",
    "Inhibition": 1
  },
  {
    "molecule-smiles": "CCCCCn1c2cc(C(F)(F)F)ccc2c2oc(C(=O)N3CCOCC3)cc21",
    "Inhibition": 3
  },
  {
    "molecule-smiles": "CCCCOC(=O)n1c2cc(F)ccc2c2oc(C(=O)N3CCOCC3)cc21",
    "Inhibition": 1
  },
  {
    "molecule-smiles": "CC(C)OC(=O)n1c2cc(F)ccc2c2oc(C(=O)N3CCOCC3)cc21",
    "Inhibition": 1
  },
  {
    "molecule-smiles": "CCCCOC(=O)n1c2cc(OC)ccc2c2oc(C(=O)N3CCOCC3)cc21",
    "Inhibition": 1
  }
]

Documented Inhibition of "COc1ccc2c3oc(C(=O)N4CCOCC4)cc3n(C(=O)OCC(C)C)c2c1" : 1
